Target: T1, IL-18 binding protein (IL-18BP) (UniProt O95998 31-194)
T1 sequence (looked up): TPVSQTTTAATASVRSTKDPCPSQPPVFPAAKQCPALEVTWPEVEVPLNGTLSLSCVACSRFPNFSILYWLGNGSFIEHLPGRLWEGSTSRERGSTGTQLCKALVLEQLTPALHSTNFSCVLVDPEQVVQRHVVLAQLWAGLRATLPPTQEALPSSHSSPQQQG
Test: cell-based or functional assay
Recorded metric: Activity, +100 nM BP, DF-1000002
Please give the numeric answer without any surrounding text.

Binder	Activity, +100 nM BP, DF-1000002
IL-18 variant E6T, D54P, S55K, R104S (ligand) YFGKLTSKLSVIRNLNDQVLFIDQGNRPLFEDMTDSDMRDNAPRTIFIISMYKPKQPRGMAVTISVKSEKISTLSSENKIISFKEMNPPDNIKDTKSDIIFFQSSVPGHDNKMQFESSSYEGYFLASEKERDLFKLILKKEDELGDRSIMFTVQNED	0.18
IL-18 variant E6N, D54N, S55N, N91H, R104P (ligand) YFGKLNSKLSVIRNLNDQVLFIDQGNRPLFEDMTDSDMRDNAPRTIFIISMYKNNQPRGMAVTISVKSEKISTLSSENKIISFKEMNPPDHIKDTKSDIIFFQPSVPGHDNKMQFESSSYEGYFLASEKERDLFKLILKKEDELGDRSIMFTVQNED	0.08
IL-18 variant G3P, E6H, N91L (ligand) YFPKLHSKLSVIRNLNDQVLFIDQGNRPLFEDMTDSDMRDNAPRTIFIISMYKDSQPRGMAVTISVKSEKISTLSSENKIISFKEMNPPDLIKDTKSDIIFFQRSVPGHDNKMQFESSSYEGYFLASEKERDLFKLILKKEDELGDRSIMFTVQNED	1.52

API: the following record is the query input.
Exercise: Sample IL-18 variant G3P, E6S, K53R, D54Y, S55P, T63I, N91K (ligand) YFPKLSSKLSVIRNLNDQVLFIDQGNRPLFEDMTDSDMRDNAPRTIFIISMYRYPQPRGMAVIISVKSEKISTLSSENKIISFKEMNPPDKIKDTKSDIIFFQRSVPGHDNKMQFESSSYEGYFLASEKERDLFKLILKKEDELGDRSIMFTVQNED — what was its Activity, +100 nM BP, DF-1000002?
Key: 0.14

Data provenance is patent US20240182536A1.
